- tested_system: recombinant guanylate cyclase reporter cell line (Rattus norvegicus, UniProt P19686+P20595)
- Construct: expressed in transfected cells; host or cells: recombinant reporter cell line
- Sequence (P19686 whole entry): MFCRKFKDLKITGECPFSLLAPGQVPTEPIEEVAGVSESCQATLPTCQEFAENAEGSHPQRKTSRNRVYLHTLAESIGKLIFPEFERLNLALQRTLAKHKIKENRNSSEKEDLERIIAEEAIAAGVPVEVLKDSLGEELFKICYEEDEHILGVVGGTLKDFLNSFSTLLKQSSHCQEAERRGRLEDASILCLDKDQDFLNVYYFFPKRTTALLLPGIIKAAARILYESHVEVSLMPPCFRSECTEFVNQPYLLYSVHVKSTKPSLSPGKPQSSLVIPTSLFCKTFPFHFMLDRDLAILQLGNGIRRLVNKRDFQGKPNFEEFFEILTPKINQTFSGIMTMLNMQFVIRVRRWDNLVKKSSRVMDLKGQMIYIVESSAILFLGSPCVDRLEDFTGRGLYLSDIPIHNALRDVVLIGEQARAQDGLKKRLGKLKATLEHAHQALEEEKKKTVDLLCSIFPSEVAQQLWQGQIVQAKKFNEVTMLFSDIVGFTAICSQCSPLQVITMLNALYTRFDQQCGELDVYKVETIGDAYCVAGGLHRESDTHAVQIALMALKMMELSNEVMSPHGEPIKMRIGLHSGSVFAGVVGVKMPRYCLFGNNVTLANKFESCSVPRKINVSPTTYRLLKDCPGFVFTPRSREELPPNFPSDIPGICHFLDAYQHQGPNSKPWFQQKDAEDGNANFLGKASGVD
- Sequence (P20595 whole entry): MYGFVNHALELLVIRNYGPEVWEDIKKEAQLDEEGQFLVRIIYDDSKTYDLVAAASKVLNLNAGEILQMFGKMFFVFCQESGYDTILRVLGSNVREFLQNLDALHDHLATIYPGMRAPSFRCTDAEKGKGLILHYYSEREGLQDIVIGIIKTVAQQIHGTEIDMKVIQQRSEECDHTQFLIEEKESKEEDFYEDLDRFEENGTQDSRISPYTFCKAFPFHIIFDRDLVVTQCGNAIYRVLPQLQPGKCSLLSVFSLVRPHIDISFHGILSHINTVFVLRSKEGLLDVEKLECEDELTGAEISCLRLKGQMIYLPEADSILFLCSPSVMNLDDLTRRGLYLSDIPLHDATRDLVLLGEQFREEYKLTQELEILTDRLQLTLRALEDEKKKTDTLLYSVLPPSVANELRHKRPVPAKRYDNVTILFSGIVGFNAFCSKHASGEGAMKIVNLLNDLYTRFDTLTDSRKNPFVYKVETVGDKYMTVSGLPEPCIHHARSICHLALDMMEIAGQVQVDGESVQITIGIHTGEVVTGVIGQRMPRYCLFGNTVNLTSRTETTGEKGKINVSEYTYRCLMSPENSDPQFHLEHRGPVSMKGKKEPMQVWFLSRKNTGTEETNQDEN
- protocol: Action on recombinant guanylate cyclase reporter cell line
- Assay type: cell-based
- measurement_parameters: in some cases mean values from individual determinations
Threshold 0.6 µM. MEC (minimal effective concentration) below it: YES. MEC (minimal effective concentration) at it or above: NO.

molecule: Cc1nc2c(OCc3c(F)cccc3F)cccn2c1C(=O)NC(CN1CCOCC1)c1ccccc1 (single isomer, unassigned; ent-8) [Example 183]
class_label: NO
//
molecule: Cc1nc2c(OCc3c(F)cccc3F)cccn2c1C(=O)NCCN1CCN(C2CC2)CC1
class_label: NO

[in] Strictly below 0.6 µM: is that where MEC (minimal effective concentration) of Cc1cc(OCc2c(F)cccc2F)c2nc(C)c(C(=O)NC(CN)c3ccc(C#N)cc3)n2c1 (centres unmarked) sits?
[out] YES

[in] Take the molecule Cc1cc(OCc2c(F)cccc2F)c2nc(C)c(C(=O)NC(CN)c3ccc4ccccc4c3)n2c1 (racemic) and say whether its MEC (minimal effective concentration) is less than 0.6 µM.
[out] NO

###

- protocol: Determination of pharmacokinetic parameters following intravenous and oral administration (rats)
- Format: in vivo, male Wistar rats
- measurement_parameters: male, Wistar, rat, plasma, iv, intravenous administration in rats
Where a name gives a salt, the structure may show the parent alone.
outcome_measure: half-life
In your response, put the unit directly after the numeric value.

Below are worked cases with known answers.
compound: Cc1cc(OCc2c(F)cccc2F)c2nc(C)c(C(=O)NCC(C)(N)CF)n2c1 (racemic) [Example 282, Formate]
half-life: 4.5 h
--
compound: Cc1cc(OCc2c(F)cccc2F)c2nc(C)c(C(=O)NCC(N)C(C)C)n2c1 (single isomer, unassigned)
half-life: 4.8 h
--
compound: C#Cc1cc(OCc2c(F)cccc2F)c2nc(C)c(C(=O)NCC(C)(N)CCC)n2c1 (stereo not shown)
half-life: 10.3 h

Please give half-life, item by item, for the list that follows.
1. Cc1cc(OCc2c(F)cccc2F)c2nc(C)c(C(=O)NC[C@H]3CCCCN3)n2c1
2. CCC(C)(N)CNC(=O)c1c(C)nc2c(OCc3c(F)ccc(F)c3F)cc(C)cn12 (single isomer, unassigned; enantiomer a)
3. Cc1cc(OCc2c(F)cccc2F)c2nc(C)c(C(=O)NCC(C)(N)CCC(F)(F)F)n2c1 (single isomer, unassigned)
4. Cc1nc2c(OCc3c(F)cccc3F)cc(Cl)cn2c1C(=O)NCC(N)C(C)C (single isomer, unassigned)
5. CCC(C)(N)CNC(=O)c1c(C)nc2c(OCc3c(F)cccc3F)cc(OC)cn12 (single isomer, unassigned; enantiomer a)
6. CCCC(C)(N)CNC(=O)c1c(C)nc2c(OCc3c(F)cccc3F)cc(C3CC3)cn12 (single isomer, unassigned; enantiomer b)
7. Cc1nc2c(OCc3c(F)cccc3F)cc(C(F)F)cn2c1C(=O)NCC(C)(N)CF (single isomer, unassigned; enantiomer a)

[out]
1. 3.3 h
2. 5.8 h
3. 3.8 h
4. 4.8 h
5. 2.3 h
6. 5.5 h
7. 4.8 h

Hi team, please reply with half-life for each item in this list.
1. CCCC(C)(N)CNC(=O)c1c(C)nc2c(OCc3cccc(F)c3F)cc(C)cn12 (racemic)
2. CCCC(C)(N)CNC(=O)c1c(C)nc2c(OCc3c(F)ccc(F)c3F)cc(C)cn12 (single isomer, unassigned)
3. CCC(C)(N)CNC(=O)c1c(C)nc2c(OCc3c(F)cccc3F)cc(Cl)cn12 (single isomer, unassigned)

[out]
1. 5.7 h
2. 6.6 h
3. 16.8 h
